All figures here come from patent US20220363754A1.

# testedTarget: T1, human TIGIT on Jurkat reporter cells (Jurkat/NFAT-Luc/hPD-1-hTIGIT) (human, UniProt Q495A1 22-244)
# T1 sequence (looked up): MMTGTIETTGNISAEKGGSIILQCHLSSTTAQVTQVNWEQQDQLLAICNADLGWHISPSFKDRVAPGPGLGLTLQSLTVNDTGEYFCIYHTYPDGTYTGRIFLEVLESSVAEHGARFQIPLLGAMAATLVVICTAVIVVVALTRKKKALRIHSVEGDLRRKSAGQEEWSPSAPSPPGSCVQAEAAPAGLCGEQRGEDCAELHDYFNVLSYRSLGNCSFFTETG
# procedureDetails: cell-based or functional assay
Listed below: EC50, luciferase reporter gene experiment (T cell activation) values for each entry.
The answer is to be given in ng/mL; state only the numeric part.

Example entries and their recorded answers appear below.
chimeric antibody ch1 (antibody, human IgG4, V domains shown, IgG4 chimeric antibody; also called 2O18-ch-HC / 2O18-ch-LC) VH: EVQLQQSGPELVKPGASVKISCKTSGYAFTEYTMHWVKQSHGKSLEWIGGINPNTGGTTYNQKFKGKATLTVDKSSSTAYMEFRSLTSEDSAVYYCAKLLRLMYYFDYWGQGTTLTVSS VL: DIVMTQSHKFMSTSVGDRVSITCKASQDVRTAVAWYQQKPGQSPKLLIYSASYRYTGVPDRFTGSGSGTDFTFTISSVQAEDLALYYCHQHYITPWTFGGGTKLEIK: 76.6
humanized antibody hu81 (antibody, V domains shown, Humanized from 23O20; detected with anti-IgG4-HRP in the ELISA, constant regions not otherwise stated) VH: QVQLVQSGAEVKKPGASVKVSCKASGYTFTNYWILWIRQAPGQGLEWMGDIYPGGHYTNYNEKLQGRVTLTADTSSSTAYMELRSLRSDDTAVYYCTRYYGPYAMDYWGQGTLVTVSS VL: DIVMTQSPLSLPVTPGEPASISCRSSQSLLYNSNQKNYLAWYLQKPGQSPQLLIYWASTGESGVPDRFSGSGSGTDFTLKISRVEAEDVGVYYCQQYYSYPFTFGQGTKVEIK: 88.4
humanized antibody hu3 (antibody, human IgG4 S228P, kappa, V domains shown, Humanized from 2O18) VH: QVQLVQSGAEVKKPGASVKVSCKTSGYAFTEYTMHWVRQAPGQGLEWMGGINPNTGGTTYNQKFQGRVTLTVDKSSSTAYMELSRLRSDDTVVYYCAKLLRLMYYFDYWGQGTLVTVSS VL: DIVMTQSPDSLAVSLGERATINCKASQDVRTAVAWYQQKPGQPPKLLIYSASYRYTGVPDRFSGSGSGTDFTLTISSLQAEDVAVYYCHQHYITPWTFGGGTKVEIKR: 140
chimeric antibody ch4 (antibody, human IgG4, V domains shown, IgG4 chimeric antibody; also called 23O20-ch-HC / 23O20-ch-LC) VH: QVQLQQSGDELVRPGTSVKVSCQAAGYTFTNYWILWIKQRPRHGLEWIGDIYPGGHYTNYNEKFKGKATLTADTSSSTAYMQLNSLTSEDSAIYYCTRYYGPYAMDYWGQGTSVTVSS VL: DIVMSQSPSSLPVSVGEKVTMSCKSSQSLLYNSNQKNYLAWYQQIPGQSPKLLIYWASTGESGVPDRFTGSGSGTDFTLTISSVKAEDLAVYYCQQYYSYPFTFGSGTKLEIK: 104
humanized antibody hu69 (antibody, V domains shown, Humanized from 23O20; detected with anti-IgG4-HRP in the ELISA, constant regions not otherwise stated) VH: QVQLVQSGAEVKKPGASVKVSCKASGYTFTNYWILWIRQAPGQGLEWMGDIYPGGHYTNYNEKFQGRVTLTADTSSSTAYMELSRLRSDDTAVYYCTRYYGPYAMDYWGQGTLVTVSS VL: DIVMTQSPLSLPVTPGEPASISCRSSQSLLYNSNQKNYLAWYLQKPGQSPQLLIYWASTGESGVPDRFSGSGSGTDFTLKISRVEAEDVGVYYCQQYYSYPFTFGQGTKLEIK: 103

EC50, luciferase reporter gene experiment (T cell activation) for humanized antibody hu20 (antibody, human IgG4 S228P, kappa, V domains shown, Humanized from 2O18) VH: QVQLVQSGAEVKKPGASVKVSCKTSGYAFTEYTMHWVRQAPGKGLEWMGGINPNTGGTTYNQKFQGRVTLTVDKSSSTAYMELSSLRSEDTVVYYCAKLLRLMYYFDYWGQGTLVTVSS VL: DIQMTQSPSSLSASVGDRVTITCQASQDVRTAVAWYQQKPGKAPKLLIYSASYRYTGVPSRFSGSGSGTDFTFTISSLQPEDIATYYCHQHYITPWTFGGGTKVEIKR ?
42.4

Suppose we examine the binder humanized antibody hu62 (antibody, V domains shown, Humanized from 23O20; detected with anti-IgG4-HRP in the ELISA, constant regions not otherwise stated) VH: QVQLVQSGAEVKKPGASVKVSCKASGYTFTNYWILWIRQAPGQGLEWMGDIYPGGHYTNYNEKFQGRVTLTADTSSSTAYMELSSLRSEDTAVYYCTRYYGPYAMDYWGQGTLVTVSS VL: DIQMTQSPSSLSASVGDRVTITCRSSQSLLYNSNQKNYLAWYQQKPGKAPKLLIYWASTGESGVPSRFSGSGSGTDFTLTISSLQPEDFATYYCQQYYSYPFTFGQGTKVEIK ; what EC50, luciferase reporter gene experiment (T cell activation) value has been reported?
109
